Assay Protocol: Percentage unbound in Crl:NMRI(Han) mouse plasma at 1 uM after 5 hrs by equilibrium dialysis method
Type: ADME, cell-free
Label Condition met when fraction unbound at 5 h, 1 µM is at or above 0.3; otherwise label Condition not met.

Worked set:
Compound | Category
Cc1nc2n(c(=O)c1CCN1CCC(c3noc4cc(F)ccc34)CC1)CC(O)CC2 (configuration not stated) | Condition met
CN(C)CC(c1ccc(O)cc1)C1(O)CCCCC1 (configuration not stated) | Condition met
Cc1nc2n(c(=O)c1CCN1CCC(c3noc4cc(F)ccc34)CC1)CCCC2 | Condition not met

Q) Record `O=C1CCc2ccc(OCCCCN3CCN(c4cccc(Cl)c4Cl)CC3)cc2N1` ; criterion: fraction unbound at 5 h, 1 µM no lower than 0.3. Met?
A) Condition not met

Q) Given the entry CNCC(c1ccc(OC)cc1)C1(O)CCCCC1 (configuration not stated) , answer whether its fraction unbound at 5 h, 1 µM meets or surpasses 0.3.
A) Condition met

Q) Record Br.CN(C)CCCC1(c2ccc(F)cc2)OCc2cc(C#N)ccc21 (configuration not stated) [CITALOPRAM HYDROBROMIDE] ; criterion: fraction unbound at 5 h, 1 µM no lower than 0.3. Met?
A) Condition met

Q) Is fraction unbound at 5 h, 1 µM for COc1ccc(C(CN(C)C)C2(O)CCCCC2)cc1.Cl (configuration not stated) [VENLAFAXINE HYDROCHLORIDE] at or above 0.3?
A) Condition met

###

Assay Protocol: Total plasma concentration in mdr1a-deficient mouse at 12 mg/kg/day administered through continuous minipump treatment for 3 days by UPLC-MS analysis
Assay type: ADME, organism-based
Condition Context: other: continuous minipump
Measurement Name: concentration at 72 h (ng/mL)
Give bare numbers, in ng/mL.

Q) Returns the measured concentration at 72 h for the input compound. Input: COc1ccc(C(CN(C)C)C2(O)CCCCC2)cc1.Cl (stereo unspecified) [VENLAFAXINE HYDROCHLORIDE]
A) 105

###

Assay Protocol: Total plasma concentration in mdr1a-deficient mouse at 4 mg/kg/day administered through continuous minipump treatment for 3 days by UPLC-MS analysis
Type: ADME, organism-based
Condition Context: other: continuous minipump
Measurement Name: concentration at 72 h
Note to self: number, then unit, no commentary.

Q) Reported concentration at 72 h for `Cc1nc2n(c(=O)c1CCN1CCC(c3noc4cc(F)ccc34)CC1)CCCC2` : what is it?
A) 40 ng/mL

###

Assay Protocol: Total plasma concentration in wild type Crl:CF1 mouse expressing Abcb1a mutant at 12 mg/kg/day administered through continuous minipump treatment for 3 days by UPLC-MS analysis
Format: ADME, organism-based
Condition Context: other: continuous minipump
Measurement Name: concentration at 72 h

Q) Entry COc1ccc(C(CN(C)C)C2(O)CCCCC2)cc1.Cl (stereo unspecified) [VENLAFAXINE HYDROCHLORIDE] has what concentration at 72 h?
A) 85 ng/mL
